- Target Under Test: fibronectin (UniProt P02751 32-2477)
- Sequence (P02751 32-2477): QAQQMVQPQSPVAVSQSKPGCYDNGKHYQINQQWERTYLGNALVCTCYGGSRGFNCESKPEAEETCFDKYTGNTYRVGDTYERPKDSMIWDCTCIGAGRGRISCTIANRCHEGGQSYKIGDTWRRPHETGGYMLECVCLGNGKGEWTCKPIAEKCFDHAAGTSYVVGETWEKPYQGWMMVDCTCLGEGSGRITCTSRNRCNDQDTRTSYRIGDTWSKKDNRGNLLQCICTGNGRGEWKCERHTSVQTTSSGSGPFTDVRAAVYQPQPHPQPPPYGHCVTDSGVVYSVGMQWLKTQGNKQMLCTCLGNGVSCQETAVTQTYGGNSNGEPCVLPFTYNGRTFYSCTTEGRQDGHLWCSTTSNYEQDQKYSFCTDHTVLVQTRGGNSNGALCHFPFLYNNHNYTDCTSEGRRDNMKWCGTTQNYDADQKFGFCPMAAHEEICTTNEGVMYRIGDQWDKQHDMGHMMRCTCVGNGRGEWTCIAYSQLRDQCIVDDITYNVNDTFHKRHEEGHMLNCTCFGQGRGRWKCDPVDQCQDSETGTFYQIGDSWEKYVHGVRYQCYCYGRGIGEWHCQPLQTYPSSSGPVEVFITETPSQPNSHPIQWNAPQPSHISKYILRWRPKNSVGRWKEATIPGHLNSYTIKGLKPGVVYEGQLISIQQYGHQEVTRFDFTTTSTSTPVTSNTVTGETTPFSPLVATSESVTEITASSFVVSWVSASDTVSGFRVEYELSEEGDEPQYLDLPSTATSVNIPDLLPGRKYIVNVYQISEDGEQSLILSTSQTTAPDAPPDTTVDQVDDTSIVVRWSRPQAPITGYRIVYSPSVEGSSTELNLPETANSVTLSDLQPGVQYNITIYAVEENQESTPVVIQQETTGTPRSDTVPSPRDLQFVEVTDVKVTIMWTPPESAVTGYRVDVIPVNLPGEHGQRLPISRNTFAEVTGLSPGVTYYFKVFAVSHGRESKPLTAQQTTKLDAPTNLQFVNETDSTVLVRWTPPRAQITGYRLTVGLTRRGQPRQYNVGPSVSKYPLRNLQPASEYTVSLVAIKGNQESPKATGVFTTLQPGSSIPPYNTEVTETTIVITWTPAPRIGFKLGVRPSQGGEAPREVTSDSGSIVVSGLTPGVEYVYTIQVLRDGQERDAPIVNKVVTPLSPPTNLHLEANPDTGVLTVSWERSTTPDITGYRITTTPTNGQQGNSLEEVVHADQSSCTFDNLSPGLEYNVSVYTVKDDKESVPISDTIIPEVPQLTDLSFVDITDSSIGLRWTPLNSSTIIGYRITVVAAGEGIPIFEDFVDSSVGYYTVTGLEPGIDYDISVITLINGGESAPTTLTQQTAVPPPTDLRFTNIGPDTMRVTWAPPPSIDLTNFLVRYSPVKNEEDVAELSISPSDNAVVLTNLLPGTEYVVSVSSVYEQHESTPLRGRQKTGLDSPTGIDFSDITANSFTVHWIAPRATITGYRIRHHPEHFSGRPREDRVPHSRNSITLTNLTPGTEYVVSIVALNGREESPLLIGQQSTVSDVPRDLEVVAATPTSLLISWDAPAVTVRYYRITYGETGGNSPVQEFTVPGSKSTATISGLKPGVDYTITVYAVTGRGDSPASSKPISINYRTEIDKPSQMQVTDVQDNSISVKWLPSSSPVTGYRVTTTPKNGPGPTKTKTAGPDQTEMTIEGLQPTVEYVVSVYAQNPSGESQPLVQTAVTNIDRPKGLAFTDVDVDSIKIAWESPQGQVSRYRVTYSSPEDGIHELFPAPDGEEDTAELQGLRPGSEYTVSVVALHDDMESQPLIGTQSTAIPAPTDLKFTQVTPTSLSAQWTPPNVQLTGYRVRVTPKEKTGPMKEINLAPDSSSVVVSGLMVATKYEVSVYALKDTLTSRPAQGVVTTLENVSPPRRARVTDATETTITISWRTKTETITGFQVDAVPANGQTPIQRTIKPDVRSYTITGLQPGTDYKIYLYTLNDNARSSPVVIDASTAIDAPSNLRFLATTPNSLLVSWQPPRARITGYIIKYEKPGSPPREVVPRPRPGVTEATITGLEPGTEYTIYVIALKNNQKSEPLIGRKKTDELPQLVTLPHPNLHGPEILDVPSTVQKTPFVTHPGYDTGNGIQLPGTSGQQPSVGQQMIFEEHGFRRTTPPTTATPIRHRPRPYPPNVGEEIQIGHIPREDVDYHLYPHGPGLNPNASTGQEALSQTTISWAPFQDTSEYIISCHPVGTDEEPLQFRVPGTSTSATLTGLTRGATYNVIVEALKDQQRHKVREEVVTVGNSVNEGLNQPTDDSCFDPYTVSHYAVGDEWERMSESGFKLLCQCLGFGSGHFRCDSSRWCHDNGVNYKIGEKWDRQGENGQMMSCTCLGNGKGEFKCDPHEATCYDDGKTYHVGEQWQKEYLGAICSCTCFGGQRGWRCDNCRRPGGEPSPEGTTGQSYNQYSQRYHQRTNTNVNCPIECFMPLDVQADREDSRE
- Assay Comment: ELISA; matrix component (0.25 ug/well in 0.1 M Na2CO3, overnight 4 C) immobilised on polystyrene plates; Emp forms 0-1.5 uM added for 1 h at RT, PBST washes; detected with polyclonal anti-Emp IgG and AP-conjugated anti-rabbit IgG; KD from steady-state curves, one-site binding model
- Test Settings: both partners purified
pKd: −log10 of the molar value.
pKd values for the binders below.
Recorded Endpoint: pKd

binder="Emp2 (central fragment of Emp) (domain or fragment, primers EmpFor2UA (+322) and EmpRev2UA (+648) relative to ATG; limits worked out from these positions and count on the precursor; source: E. coli (TG1 transformants, plasmid pQemp2), purified (Ni-NTA in 8 M urea, solubilized by stepwise dialysis)) YKEINNRVNVATNNPASQQVDKHFVAKGPEVNRFITQNKVNHHFITTQTHYKKVITSYKSTHVHKHVNHAKDSINKHFIVKPSESPRYTHPSQSLIIKHHFAVPGYHAH" recorded_endpoint=pKd readout_value=8.10
binder="Emp1+2 (combination of Emp1 and Emp2) (domain or fragment, limits worked out from these positions and count on the precursor; source: E. coli (TG1 transformants, plasmid pQemp1 + 2), purified (Ni-NTA in 8 M urea, solubilized by stepwise dialysis)) ASVTESVDKKFVVPESGINKIIPAYDEFKNSPKVNVSNLTDNKNFVASEDKLNKIADSSAASKIVDKNFVVPESKLGNIVPEYKEINNRVNVATNNPASQQVDKHFVAKGPEVNRFITQNKVNHHFITTQTHYKKVITSYKSTHVHKHVNHAKDSINKHFIVKPSESPRYTHPSQSLIIKHHFAVPGYHAH" recorded_endpoint=pKd readout_value=8.52
binder="Emp2+3 (combination of Emp2 and Emp3; N-truncated Emp) (domain or fragment, limits worked out from these positions and count on the precursor; source: E. coli (TG1 transformants, plasmid pQemp2 + 3), purified (Ni-NTA in 8 M urea, solubilized by stepwise dialysis)) YKEINNRVNVATNNPASQQVDKHFVAKGPEVNRFITQNKVNHHFITTQTHYKKVITSYKSTHVHKHVNHAKDSINKHFIVKPSESPRYTHPSQSLIIKHHFAVPGYHAHKFVTPGHASIKINHFCVVPQINSFKVIPPYGHNSHRMHVPSFQNNTTATHQNAKVNKAYDYKYFYSYKVVKGVKKYFSFSQSNGYKIGKPSLNIKNVNYQYAVPSYSPTHYVPEFKGSLPAPRV" recorded_endpoint=pKd readout_value=6.39
binder="full-length Emp protein (extracellular matrix protein Emp of Staphylococcus aureus, without the signal peptide) (natural protein, gene of 1,023 nucleotides; numbers count on: the protein without signal peptide and without His-tag; The vector (printed pQ30-UA, Qiagen) probably adds an N-terminal His6 (surmised); Primer EmpFor1UA starts at nt +76 (codon 26), which would give 315 residues against the printed 314; also called EmpFL; source: E. coli (TG1 transformants, plasmid pQemp), purified (Ni-NTA in 8 M urea, solubilized by …)) SVTESVDKKFVVPESGINKIIPAYDEFKNSPKVNVSNLTDNKNFVASEDKLNKIADSSAASKIVDKNFVVPESKLGNIVPEYKEINNRVNVATNNPASQQVDKHFVAKGPEVNRFITQNKVNHHFITTQTHYKKVITSYKSTHVHKHVNHAKDSINKHFIVKPSESPRYTHPSQSLIIKHHFAVPGYHAHKFVTPGHASIKINHFCVVPQINSFKVIPPYGHNSHRMHVPSFQNNTTATHQNAKVNKAYDYKYFYSYKVVKGVKKYFSFSQSNGYKIGKPSLNIKNVNYQYAVPSYSPTHYVPEFKGSLPAPRV" recorded_endpoint=pKd readout_value=7.37
binder="Emp3 (C-terminal fragment of Emp) (domain or fragment, primers EmpFor3UA (+622) and EmpRev3UA (+1024, holds the stop codon) relative to ATG; limits worked out from these positions and count on the precursor; source: E. coli (TG1 transformants, plasmid pQemp3), purified (Ni-NTA in 8 M urea, solubilized by stepwise dialysis)) FAVPGYHAHKFVTPGHASIKINHFCVVPQINSFKVIPPYGHNSHRMHVPSFQNNTTATHQNAKVNKAYDYKYFYSYKVVKGVKKYFSFSQSNGYKIGKPSLNIKNVNYQYAVPSYSPTHYVPEFKGSLPAPRV" recorded_endpoint=pKd readout_value=6.51

Where these numbers come from: paper PMC5651841
